Molecular target: human recombinant dopamine D1 receptor (Homo sapiens, UniProt P21728)
Sequence (P21728 whole entry): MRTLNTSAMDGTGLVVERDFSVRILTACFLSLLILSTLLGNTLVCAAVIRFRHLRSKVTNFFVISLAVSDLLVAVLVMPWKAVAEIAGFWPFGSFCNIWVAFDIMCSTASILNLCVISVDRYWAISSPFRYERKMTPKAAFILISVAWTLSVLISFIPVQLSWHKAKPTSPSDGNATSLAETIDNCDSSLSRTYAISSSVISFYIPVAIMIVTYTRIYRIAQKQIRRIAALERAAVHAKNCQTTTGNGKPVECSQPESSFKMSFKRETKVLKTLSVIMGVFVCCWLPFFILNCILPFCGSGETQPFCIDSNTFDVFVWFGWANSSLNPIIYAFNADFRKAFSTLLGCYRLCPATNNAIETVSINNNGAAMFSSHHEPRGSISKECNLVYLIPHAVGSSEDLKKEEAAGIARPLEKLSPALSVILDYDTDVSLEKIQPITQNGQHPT
Test: Dopamine D1 receptor binding, [3H]SCH 23390 displacement
Conditions: read-out: D1 % inhibition
For each entry below, report its inhibition at 0.1 µM value.
Give bare numbers, in %.

Solved cases (4 shown):
O=C1CN2c3c(cccc3[C@@H]3CN(CCCOc4ccccc4)CC[C@@H]32)N1 : 24
O=C1CN2c3c(cccc3[C@@H]3CN(CCCOc4ccc(F)cc4)CC[C@@H]32)N1 : 44
O=C1CN2c3c(cccc3[C@@H]3CN(CCCOc4ccc(F)cc4)CC[C@H]32)N1 (racemic) : 79
O=C1CN2c3c(cccc3[C@H]3CN(CCCOc4ccc(F)cc4)CC[C@H]32)N1 : 50

Consider the record given below.
Lookup: Entry under review: `O=C1CN2c3c(cccc3[C@@H]3CN(CCCOc4ccc(F)c(F)c4)CC[C@@H]32)N1` . Reported inhibition at 0.1 µM?
Found: 15

---

Biological target: human recombinant dopamine D2 short receptor (Homo sapiens, UniProt P14416)
Sequence (P14416 1-414 isoform P14416-2): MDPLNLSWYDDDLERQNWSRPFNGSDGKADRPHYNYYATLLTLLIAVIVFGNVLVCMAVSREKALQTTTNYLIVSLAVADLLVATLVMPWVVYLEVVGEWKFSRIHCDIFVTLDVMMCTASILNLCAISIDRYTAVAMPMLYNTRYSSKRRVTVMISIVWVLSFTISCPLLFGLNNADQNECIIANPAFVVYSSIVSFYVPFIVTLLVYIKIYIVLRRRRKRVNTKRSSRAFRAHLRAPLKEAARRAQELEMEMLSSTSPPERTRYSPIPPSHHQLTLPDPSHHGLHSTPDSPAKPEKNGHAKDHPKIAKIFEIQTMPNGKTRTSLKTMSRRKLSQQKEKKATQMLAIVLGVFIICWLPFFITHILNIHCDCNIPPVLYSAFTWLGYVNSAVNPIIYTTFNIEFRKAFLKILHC
Assay: Dopamine D2 receptor binding, [3H]7-OH-DPAT displacement
readout: Ki (nM)
Give bare numbers, in nM.

Solved cases (2 shown):
O=C1CN2c3c(cccc3[C@@H]3CN(CCCOc4ccc(F)c(F)c4)CC[C@@H]32)N1 : 1620
O=C1CN2c3c(cccc3[C@@H]3CN(CCCc4n[nH]c5cc(F)ccc45)CC[C@@H]32)N1 : 15

Consider the record given below.
Lookup: Entry under review: `O=C1CN2c3c(cccc3[C@@H]3CN(CCCc4noc5cc(F)ccc45)CC[C@@H]32)N1` . Reported Ki?
Found: 84

---

Biological target: human recombinant 5-HT transporter (SERT) (Homo sapiens)
Construct: host or cells: CHO-S / SERT (h), cell membrane homogenates
Sequence (P31645 whole entry): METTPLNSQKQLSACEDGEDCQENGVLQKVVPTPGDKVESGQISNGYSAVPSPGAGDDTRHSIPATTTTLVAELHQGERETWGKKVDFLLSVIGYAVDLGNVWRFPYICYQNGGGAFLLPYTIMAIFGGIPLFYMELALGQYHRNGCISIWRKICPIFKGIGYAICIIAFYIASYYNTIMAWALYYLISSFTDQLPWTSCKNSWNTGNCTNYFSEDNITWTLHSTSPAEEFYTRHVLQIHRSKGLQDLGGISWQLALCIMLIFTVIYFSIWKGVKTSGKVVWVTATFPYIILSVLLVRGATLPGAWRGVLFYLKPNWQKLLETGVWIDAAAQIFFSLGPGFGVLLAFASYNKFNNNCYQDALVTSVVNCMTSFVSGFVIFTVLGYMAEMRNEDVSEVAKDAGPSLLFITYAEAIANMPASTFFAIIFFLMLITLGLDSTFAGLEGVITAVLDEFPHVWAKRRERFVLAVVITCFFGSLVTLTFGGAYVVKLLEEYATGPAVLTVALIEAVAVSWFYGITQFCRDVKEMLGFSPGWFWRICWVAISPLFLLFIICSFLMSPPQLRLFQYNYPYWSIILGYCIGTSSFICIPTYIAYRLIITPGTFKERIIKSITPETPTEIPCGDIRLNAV
Assay: biochemical
Format: binding
Conditions: read-out: SERT % inhibition
readout: inhibition at 0.2 µM

Solved cases (7 shown):
Cc1cc(F)cc(C)c1OCCCN1CC[C@H]2[C@@H](C1)c1cccc3c1N2CC(=O)N3 : 34%
O=C1CN2c3c(cccc3[C@@H]3CN(CCCO)CC[C@@H]32)N1 : < 0%
O=C1CN2c3c(cccc3[C@@H]3CN(CCCOc4ccccc4)CC[C@@H]32)N1 : 8%
O=C1CCN2c3c(cccc3[C@@H]3CN(CCCOc4ccc(F)cc4)CC[C@@H]32)N1 : 29%
O=C1CN2c3c(cccc3[C@@H]3CN(CCCOc4ccc(F)c(F)c4)CC[C@@H]32)N1 : 15%
CN(CCCN1CC[C@H]2[C@@H](C1)c1cccc3c1N2CC(=O)N3)c1ccc(F)cc1 : 53%
CCCCN1CC[C@H]2[C@@H](C1)c1cccc3c1N2CC(=O)N3 : < 0%

Consider the record given below.
Lookup: Entry under review: `O=C1CN2c3c(cccc3[C@@H]3CN(CCCS(=O)(=O)c4ccc(F)cc4)CC[C@@H]32)N1` . Reported inhibition at 0.2 µM?
Found: < 0%

---

For each entry below, report its inhibition at 0.1 µM value.
Target: human recombinant dopamine D1 receptor (Homo sapiens)
Experiment: Dopamine D1 receptor binding, [3H]SCH 23390 displacement
Conditions: inhibition at 100 nM; NI = no inhibition; read-out: D1 % inhibition
Give bare numbers, in %.

I'm hoping you can list inhibition at 0.1 µM for every compound here, please.
1. CN(CCCN1CC[C@H]2[C@@H](C1)c1cccc3c1N2CC(=O)N3)c1ccc(F)cc1
2. O=C1CN2c3c(cccc3[C@@H]3CN(CCOc4ccc(F)cc4)CC[C@@H]32)N1

Found:
1. 21
2. 10

---

For each entry below, report its inhibition at 0.1 µM value.
Molecular target: human full-length recombinant serotonin 5-HT2A receptors (Homo sapiens)
Construct: human full-length recombinant serotonin 5-HT2A receptors expressed in HEK-293E cells
Sequence (P28223 whole entry): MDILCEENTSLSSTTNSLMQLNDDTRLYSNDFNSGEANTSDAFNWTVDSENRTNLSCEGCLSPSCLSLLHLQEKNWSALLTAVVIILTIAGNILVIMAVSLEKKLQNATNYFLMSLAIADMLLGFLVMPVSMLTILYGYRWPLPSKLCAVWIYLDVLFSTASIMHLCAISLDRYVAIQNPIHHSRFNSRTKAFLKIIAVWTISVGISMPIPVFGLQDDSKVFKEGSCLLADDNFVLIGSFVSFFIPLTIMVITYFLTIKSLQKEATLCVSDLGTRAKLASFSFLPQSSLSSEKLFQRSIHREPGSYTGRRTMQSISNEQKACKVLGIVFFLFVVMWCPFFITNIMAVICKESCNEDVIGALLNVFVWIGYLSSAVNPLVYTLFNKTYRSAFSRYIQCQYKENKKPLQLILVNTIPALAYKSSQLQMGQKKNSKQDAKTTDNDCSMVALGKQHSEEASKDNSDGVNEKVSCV
Assay: biochemical
Type: binding
Details: read-out: 5-HT2A % inhibition

O=C1CN2c3c(cccc3[C@@H]3CN(CCCOc4cccc(F)c4)CC[C@@H]32)N1 : 78%
O=C1CN2c3c(cccc3[C@@H]3CN(CCCOc4ccccc4F)CC[C@@H]32)N1 : 87%
O=C1CCN2c3c(cccc3[C@@H]3CN(CCCOc4ccc(F)cc4)CC[C@@H]32)N1 : 93%

Consider the record given below.
Lookup: Entry under review: `CCCCN1CC[C@H]2[C@@H](C1)c1cccc3c1N2CC(=O)N3` . Reported inhibition at 0.1 µM?
Found: < 0%

---

Biological target: human recombinant 5-HT transporter (SERT) (Homo sapiens)
Construct: host or cells: CHO-S / SERT (h), cell membrane homogenates
Assay: biochemical
Format: binding
Details: read-out: SERT % inhibition
readout: inhibition at 0.1 µM

Solved cases (6 shown):
O=C1CN2c3c(cccc3[C@@H]3CN(CCCOc4ccc(F)cc4)CC[C@H]32)N1 (racemic) : < 0%
O=C1CN2c3c(cccc3[C@@H]3CN(CCCOc4ccccc4F)CC[C@@H]32)N1 : 5.1%
CC1C(=O)Nc2cccc3c2N1[C@H]1CCN(CCCOc2ccc(F)cc2)C[C@@H]31 (stereo partly shown) : < 0%
COc1ccc(OCCCN2CC[C@H]3[C@@H](C2)c2cccc4c2N3CC(=O)N4)cc1 : 10%
NC(=O)c1cc(F)ccc1OCCCN1CC[C@H]2[C@@H](C1)c1cccc3c1N2CC(=O)N3 : 9.6%
O=C1CN2c3c(cccc3[C@@H]3CN(CCCOc4ccc(OCc5ccccc5)cc4)CC[C@@H]32)N1 : 68%

I'm hoping you can list inhibition at 0.1 µM for every compound here, please.
1. O=C1CN2c3c(cccc3[C@@H]3CN(CCCOc4ccc(Br)cc4)CC[C@@H]32)N1
2. O=C1CN2c3c(cccc3[C@H]3CN(CCCOc4ccc(F)cc4)CC[C@H]32)N1
3. O=C1CN2c3c(cccc3[C@@H]3CN(CCCCOc4ccc(F)cc4)CC[C@@H]32)N1
4. O=C1CN2c3c(cccc3[C@@H]3CN(CCCOc4ccc(O)cc4)CC[C@@H]32)N1

Found:
44%
< 0%
< 0%
11%

I'm hoping you can list inhibition at 0.1 µM for every compound here, please.
1. O=C1CN2c3c(cccc3[C@@H]3CN(CCOc4ccc(F)cc4)CC[C@@H]32)N1
2. Cc1ccc(OCCCN2CC[C@H]3[C@@H](C2)c2cccc4c2N3CC(=O)N4)cc1
3. O=C1CN2c3c(cccc3[C@@H]3CN(CCCOc4cccc(F)c4)CC[C@@H]32)N1

Found:
< 0%
9.6%
7.7%

---

Target: human recombinant dopamine D2 short receptor (Homo sapiens)
Assay: Dopamine D2 receptor binding, [3H]7-OH-DPAT displacement
Settings: inhibition at 100 nM; NI = no inhibition; read-out: D2 % inhibition
Assign class by inhibition at 0.1 µM: not lower than 20% means Fulfilled; lower than 20% means Not fulfilled.

O=C1CN2c3c(cccc3[C@@H]3CN(CCCOc4ccc(OCc5ccccc5)cc4)CC[C@@H]32)N1 [compound 35] : Fulfilled
O=C1CN2c3c(cccc3[C@@H]3CN(CCCOc4ccc(O)cc4)CC[C@@H]32)N1 [compound 33] : Fulfilled
O=C1CN2c3c(cccc3[C@@H]3CN(CCCOc4ccccc4F)CC[C@@H]32)N1 [compound 36] : Fulfilled

Lookup: State whether the measured inhibition at 0.1 µM reaches 20%, counting equality as reaching it, for CN(CCCN1CC[C@H]2[C@@H](C1)c1cccc3c1N2CC(=O)N3)c1ccc(F)cc1 [compound 48]
Found: Not fulfilled

Lookup: State whether the measured inhibition at 0.1 µM reaches 20%, counting equality as reaching it, for CC1C(=O)Nc2cccc3c2N1[C@H]1CCN(CCCOc2ccc(F)cc2)C[C@@H]31 (stereo partly drawn) [compound 51]
Found: Fulfilled

Lookup: State whether the measured inhibition at 0.1 µM reaches 20%, counting equality as reaching it, for O=C1CN2c3c(cccc3[C@@H]3CN(CCOc4ccc(F)cc4)CC[C@@H]32)N1 [compound 49]
Found: Fulfilled

Lookup: State whether the measured inhibition at 0.1 µM reaches 20%, counting equality as reaching it, for NC(=O)c1cc(F)ccc1OCCCN1CC[C@H]2[C@@H](C1)c1cccc3c1N2CC(=O)N3 [compound 38]
Found: Not fulfilled

Lookup: State whether the measured inhibition at 0.1 µM reaches 20%, counting equality as reaching it, for O=C1CN2c3c(cccc3[C@@H]3CN(CCCCOc4ccc(F)cc4)CC[C@@H]32)N1 [compound 50]
Found: Fulfilled

Lookup: State whether the measured inhibition at 0.1 µM reaches 20%, counting equality as reaching it, for O=C1CN2c3c(cccc3[C@@H]3CN(CCCOc4cccc(F)c4)CC[C@@H]32)N1 [compound 37]
Found: Not fulfilled

Lookup: State whether the measured inhibition at 0.1 µM reaches 20%, counting equality as reaching it, for O=C1CN2c3c(cccc3[C@@H]3CN(CCCO)CC[C@@H]32)N1 [compound 22]
Found: Not fulfilled

Lookup: State whether the measured inhibition at 0.1 µM reaches 20%, counting equality as reaching it, for CCCCN1CC[C@H]2[C@@H](C1)c1cccc3c1N2CC(=O)N3 [compound 21]
Found: Not fulfilled

Lookup: State whether the measured inhibition at 0.1 µM reaches 20%, counting equality as reaching it, for O=C1CN2c3c(cccc3[C@@H]3CN(CCCOc4ccc(Br)cc4)CC[C@@H]32)N1 [compound 30]
Found: Not fulfilled

Lookup: State whether the measured inhibition at 0.1 µM reaches 20%, counting equality as reaching it, for O=C1CCN2c3c(cccc3[C@@H]3CN(CCCOc4ccc(F)cc4)CC[C@@H]32)N1 [compound 53]
Found: Fulfilled

Lookup: State whether the measured inhibition at 0.1 µM reaches 20%, counting equality as reaching it, for O=C1CN2c3c(cccc3[C@@H]3CN(CCCS(=O)(=O)c4ccc(F)cc4)CC[C@@H]32)N1 [compound 46]
Found: Not fulfilled
